# test_system: T1, Claudin 18.2 (CLDN18.2), expressed on CHOS-CLDN 18.2 / HEK293-CLDN 18.2 / HCC827-CLDN 18.2 cells (human, UniProt P56856-2 1-261)
# T1 construct: whole, on cells; The species is not repeated for the CHOS-CLDN 18.2 cells; also called claudin-18A2
# assay_protocol: FACS, CHOS-CLDN18.2 cells, 0.078 µg/ml
readout_label: FACS reading
Quick one: just the number, no unit, thanks!

Entry QP14451440 (antibody, human IgG1, kappa, V domains shown, Humanized from QP192193; also called QP14401445) VH: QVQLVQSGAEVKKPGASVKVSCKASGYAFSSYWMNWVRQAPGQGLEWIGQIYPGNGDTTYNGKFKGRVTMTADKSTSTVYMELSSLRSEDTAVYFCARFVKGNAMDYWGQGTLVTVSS VL: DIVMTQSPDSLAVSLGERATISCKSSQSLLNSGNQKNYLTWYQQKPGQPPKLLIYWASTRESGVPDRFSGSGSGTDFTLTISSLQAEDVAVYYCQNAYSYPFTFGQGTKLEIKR ; FACS reading = 35400
